System: OVCAR-3 ovarian
Test: NCI-60 one-dose screen, 48 h (100 = growth as untreated, 0 = no growth, -100 = all killed)
Conditions: 10 µM unless noted
About 83,000 compounds went through this panel and 20% of them were active in at least one assay; those are over-represented in the sample as a whole.
quantity: growth (%)
Write it as a number; the unit % goes unstated.

O=C(O)c1cccc2c1C(=O)N(c1ccc3c(c1)Cc1ccccc1-3)C2=O
122
Cc1cc(Cl)nc(N(CCNc2ccnc3cc(Cl)ccc23)Cc2ccco2)n1
-41.2

Next:
Enquiry: Requested field: growth. Item: "COc1ccc2nc(-c3cc(-c4cc(OC)c(OC)c(OC)c4)n[nH]3)[nH]c2c1"
Return: -29
